- study-system: Tau fibrils (Homo sapiens, UniProt P10636)
- Sequence (P10636 1-441 isoform P10636-8): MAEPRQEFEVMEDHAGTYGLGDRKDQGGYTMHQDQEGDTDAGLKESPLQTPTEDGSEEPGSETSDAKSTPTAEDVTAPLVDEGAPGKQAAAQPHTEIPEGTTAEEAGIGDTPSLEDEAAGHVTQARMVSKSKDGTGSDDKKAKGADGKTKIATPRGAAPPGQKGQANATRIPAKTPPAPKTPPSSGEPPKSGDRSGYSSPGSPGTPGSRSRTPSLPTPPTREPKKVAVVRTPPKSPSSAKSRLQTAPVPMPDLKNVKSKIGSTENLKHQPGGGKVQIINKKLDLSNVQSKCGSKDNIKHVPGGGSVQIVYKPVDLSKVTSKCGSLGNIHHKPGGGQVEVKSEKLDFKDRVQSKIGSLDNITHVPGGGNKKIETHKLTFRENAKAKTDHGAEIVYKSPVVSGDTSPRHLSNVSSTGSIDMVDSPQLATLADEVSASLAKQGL
- protocol-description: [18F]-F0502B saturation binding assay with Tau PFFs
- study-conditions: read-out: KD, Tau fibrils, 1 μM PFFs
readout-type: pKd
Worth noting: pKd values are minus log10 of concentrations stated in mol/L.

get_value(item= Cc1cc2nc(/C=C/c3ccc(O)c(Br)c3)sc2cc1N(C)CCOCCF [[^18F]-F0502B] , readout=pKd) returns 6.92

###

- study-system: aggregated α-Syn in PD brains (Homo sapiens)
- protocol-description: In vitro competition assay against [3H]BF-227 in postmortem PD brain tissue
- study-conditions: read-out: Ki against [3H]BF227; postmortem PD brain tissue homogenate
readout-type: Ki (nM)
State just the number; it will be interpreted in nM.

Value of Ki reported for the compound Cc1cc2nc(/C=C/c3ccc(O)c(Br)c3)sc2cc1N(C)CCOCCF [F0502B] is 3.4

###

- study-system: aggregated α-Syn in PD/DLB patients (Homo sapiens)
- protocol-description: Saturation binding assay with insoluble α-Syn fraction from PD/DLB brain
- study-conditions: read-out: KD, aggregated α-Syn in DLB patients, DLB
readout-type: Kd (nM)
Could you give me the number in nM? Just the number is fine.

Documented Kd of Cc1cc2nc(/C=C/c3ccc(O)c(Br)c3)sc2cc1N(C)CCOCCF [F0502B] : 6.23

###

- study-system: Aβ fibrils in AD patients (Homo sapiens)
- Sequence (P05067 672-711 limits assumed): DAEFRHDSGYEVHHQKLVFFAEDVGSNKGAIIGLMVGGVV
- protocol-description: Saturation binding assay with insoluble Aβ fraction from AD brain
- study-conditions: read-out: KD, Aβ fibrils in AD patients
readout-type: pKd
Note: pKd values are expressed as the negative base-10 logarithm of concentration in M.

Documented pKd of Cc1cc2nc(/C=C/c3ccc(O)c(Br)c3)sc2cc1N(C)CCOCCF [[^18F]-F0502B] : 6.97

###

- study-system: α-Syn deposits in PD/DLB brain homogenates (Homo sapiens, UniProt P37840)
- Type: binding
- study-conditions: read-out: KD for α-Syn deposits in PD brains; PD brains
pKd: −log10 of the molar value.
readout-type: pKd

Measured pKd of Cc1cc2nc(/C=C/c3ccc(O)c(Br)c3)sc2cc1N(C)CCOCCF [F0502B] : 8.14 to 8.37

###

- study-system: Tau fibrils in AD patients (Homo sapiens, UniProt P10636)
- Sequence (P10636 623-708 limits assumed): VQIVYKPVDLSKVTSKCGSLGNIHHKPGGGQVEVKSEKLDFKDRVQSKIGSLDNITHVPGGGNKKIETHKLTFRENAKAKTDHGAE
- protocol-description: Saturation binding assay with insoluble Tau fraction from AD brain
- study-conditions: read-out: KD, Tau fibrils in AD patients
readout-type: pKd
The scale used: pKd is minus the common logarithm of the concentration in molar units.

In plain terms, Cc1cc2nc(/C=C/c3ccc(O)c(Br)c3)sc2cc1N(C)CCOCCF [[^18F]-F0502B] has a documented pKd of 6.82

###

- study-system: α-Syn deposits in PD/DLB brain homogenates (Homo sapiens, UniProt P37840)
- Format: binding
- study-conditions: read-out: Kd, DLB brain homogenates; unfractionated human DLB brain homogenates
readout-type: Kd (nM)
The reply should contain only the number, in nM.

Tested on α-Syn deposits in PD/DLB brain homogenates (Homo sapiens, UniProt P37840), the item Cc1cc2nc(/C=C/c3ccc(O)c(Br)c3)sc2cc1N(C)CCOCCF [F0502B] showed Kd equal to 9.79

###

- study-system: Aβ1–42 fibrils (Homo sapiens, UniProt P05067)
- Sequence (P05067 672-713 limits assumed): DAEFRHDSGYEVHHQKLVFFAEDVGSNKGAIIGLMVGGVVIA
- protocol-description: [18F]-F0502B saturation binding assay with Aβ PFFs
- study-conditions: read-out: KD, Aβ fibrils, 1 μM PFFs
readout-type: pKd
FYI, pKd means -log10 of a concentration in mol per litre.

Per the reported Aβ1–42 fibrils (Homo sapiens, UniProt P05067) data, Cc1cc2nc(/C=C/c3ccc(O)c(Br)c3)sc2cc1N(C)CCOCCF [[^18F]-F0502B] has pKd of 6.96
